Let's look at some molecules and their measured ΔLogR GTPγS.
# assay-system: hCB2R (Homo sapiens, UniProt P34972)
# Sequence (P34972 whole entry): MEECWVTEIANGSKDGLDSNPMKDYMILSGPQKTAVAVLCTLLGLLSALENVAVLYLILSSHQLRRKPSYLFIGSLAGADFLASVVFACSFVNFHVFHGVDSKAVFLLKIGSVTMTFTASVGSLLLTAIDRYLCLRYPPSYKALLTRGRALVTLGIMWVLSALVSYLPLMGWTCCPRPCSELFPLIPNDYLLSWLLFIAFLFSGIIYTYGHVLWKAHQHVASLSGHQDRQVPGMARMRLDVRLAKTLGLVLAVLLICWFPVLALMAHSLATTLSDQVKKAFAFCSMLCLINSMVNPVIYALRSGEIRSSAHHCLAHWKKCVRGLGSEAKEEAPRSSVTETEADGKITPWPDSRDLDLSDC
# Parameters: expressed in transfected cells; host or cells: Flp-In-293 (Invitrogen #R750-07), pcDNA5/FRT
# protocol-conditions: hCB2R, reference CP55940
Number, no unit, nothing else.

molecule="CN1CCCC[C@@H]1Cn1cc(C(=O)c2cc([N+](=O)[O-])ccc2I)c2ccccc21 [(R)-AM1241]" quantity_measured="ΔLogR GTPγS" reported_result=-0.99
molecule="CCCCC/C=C\\C/C=C\\C/C=C\\C/C=C\\CCCC(=O)NCCO [Anandamide, N-arachidonoylethanolamine]" quantity_measured="ΔLogR GTPγS" reported_result=-3.74

# next molecule below
Query string: Request the reported ΔLogR GTPγS associated with CN1CCCC[C@H]1Cn1cc(C(=O)c2cc([N+](=O)[O-])ccc2I)c2ccccc21 [(S)-AM1241]
Result string: -1.38

---

# assay-system: hCB2R (Homo sapiens, UniProt P34972)
# Parameters: expressed in transfected cells; host or cells: Flp-In-293 (Invitrogen #R750-07), pcDNA5/FRT
# protocol-conditions: hCB2R
quantity-measured: β-AR-pERK bias factor (BF)
Number, no unit, nothing else.

Query string: Request the reported β-AR-pERK bias factor (BF) associated with `CCCCCCC(C)(C)c1cc(OC)c(C2=C[C@H]3CC[C@]2(CO)C3(C)C)c(OC)c1`
Result string: 20.56

Query string: Request the reported β-AR-pERK bias factor (BF) associated with CN1CCCC[C@H]1Cn1cc(C(=O)c2cc([N+](=O)[O-])ccc2I)c2ccccc21 [(S)-AM1241]
Result string: 0.09

Query string: Request the reported β-AR-pERK bias factor (BF) associated with `CCCCCCC(C)(C)c1cc(OC)c([C@@H]2C=C(CO)[C@@H]3C[C@H]2C3(C)C)c(OC)c1`
Result string: 5.08

Query string: Request the reported β-AR-pERK bias factor (BF) associated with CCCCC/C=C\C/C=C\C/C=C\C/C=C\CCCC(=O)NCCO [Anandamide, N-arachidonoylethanolamine]
Result string: 1.11

Query string: Request the reported β-AR-pERK bias factor (BF) associated with CN1CCCC[C@@H]1Cn1cc(C(=O)c2cc([N+](=O)[O-])ccc2I)c2ccccc21 [(R)-AM1241]
Result string: 0.41

Query string: Request the reported β-AR-pERK bias factor (BF) associated with CN1CCCCC1Cn1cc(C(=O)c2cc([N+](=O)[O-])ccc2I)c2ccccc21 (racemic) [(rac)-AM1241]
Result string: 0.65

Query string: Request the reported β-AR-pERK bias factor (BF) associated with `CCCCC/C=C\C/C=C\C/C=C\C/C=C\CCCC(=O)OC(CO)CO`
Result string: 1.16

---

# assay-system: mCB2R (Mus musculus)
# Sequence (P47936 whole entry): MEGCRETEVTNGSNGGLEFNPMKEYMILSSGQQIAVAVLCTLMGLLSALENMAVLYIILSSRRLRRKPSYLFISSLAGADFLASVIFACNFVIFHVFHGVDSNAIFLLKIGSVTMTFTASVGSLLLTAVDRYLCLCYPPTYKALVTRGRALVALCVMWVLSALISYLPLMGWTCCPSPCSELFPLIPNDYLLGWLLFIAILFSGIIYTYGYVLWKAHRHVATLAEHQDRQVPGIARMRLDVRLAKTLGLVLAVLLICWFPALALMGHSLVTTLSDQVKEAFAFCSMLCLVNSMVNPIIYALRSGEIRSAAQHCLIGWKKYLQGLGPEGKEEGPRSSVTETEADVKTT
# run-description: biochemical
# Type: binding
# Set-up: from tissue; host or cells: spleen of male C57BL/6J mice
# protocol-conditions: mouse spleen membranes
Let's look at some molecules and their measured pKi ± SEM mCB2R.
Number, no unit, nothing else.

Answered examples (5):
molecule="CN1CCCCC1Cn1cc(C(=O)c2cc([N+](=O)[O-])ccc2I)c2ccccc21 (racemic) [(rac)-AM1241]" reported_result=7.73
molecule="Cc1ccc2c(c1)Cc1c(C(=O)NN3CCCCC3)nn(-c3ccc(Cl)cc3Cl)c1-2 [Gp-1a]" reported_result=7.68
molecule="CCCC(C)(C)c1ccc2c(c1)OC(C)(C)[C@@H]1CC=C(C)C[C@@H]21 [JWH133]" reported_result=7.69
molecule="CCCCCCC(C)(C)c1cc(OC)c(C2=C[C@H]3CC[C@]2(CO)C3(C)C)c(OC)c1 [HU910]" reported_result=6.88
molecule="CN1CCCC[C@@H]1Cn1cc(C(=O)c2cc([N+](=O)[O-])ccc2I)c2ccccc21 [(R)-AM1241]" reported_result=7.59

# next molecule below
Query string: Request the reported pKi ± SEM mCB2R associated with CN1CCCC[C@H]1Cn1cc(C(=O)c2cc([N+](=O)[O-])ccc2I)c2ccccc21 [(S)-AM1241]
Result string: 6.74

Cited source for all entries: paper PMC5216056
